Molecular target: human TRPV4 (Homo sapiens, UniProt Q9HBA0)
Construct: host or cells: tetracycline-inducible Flp-In T-REx 293 cells
Sequence (Q9HBA0 whole entry): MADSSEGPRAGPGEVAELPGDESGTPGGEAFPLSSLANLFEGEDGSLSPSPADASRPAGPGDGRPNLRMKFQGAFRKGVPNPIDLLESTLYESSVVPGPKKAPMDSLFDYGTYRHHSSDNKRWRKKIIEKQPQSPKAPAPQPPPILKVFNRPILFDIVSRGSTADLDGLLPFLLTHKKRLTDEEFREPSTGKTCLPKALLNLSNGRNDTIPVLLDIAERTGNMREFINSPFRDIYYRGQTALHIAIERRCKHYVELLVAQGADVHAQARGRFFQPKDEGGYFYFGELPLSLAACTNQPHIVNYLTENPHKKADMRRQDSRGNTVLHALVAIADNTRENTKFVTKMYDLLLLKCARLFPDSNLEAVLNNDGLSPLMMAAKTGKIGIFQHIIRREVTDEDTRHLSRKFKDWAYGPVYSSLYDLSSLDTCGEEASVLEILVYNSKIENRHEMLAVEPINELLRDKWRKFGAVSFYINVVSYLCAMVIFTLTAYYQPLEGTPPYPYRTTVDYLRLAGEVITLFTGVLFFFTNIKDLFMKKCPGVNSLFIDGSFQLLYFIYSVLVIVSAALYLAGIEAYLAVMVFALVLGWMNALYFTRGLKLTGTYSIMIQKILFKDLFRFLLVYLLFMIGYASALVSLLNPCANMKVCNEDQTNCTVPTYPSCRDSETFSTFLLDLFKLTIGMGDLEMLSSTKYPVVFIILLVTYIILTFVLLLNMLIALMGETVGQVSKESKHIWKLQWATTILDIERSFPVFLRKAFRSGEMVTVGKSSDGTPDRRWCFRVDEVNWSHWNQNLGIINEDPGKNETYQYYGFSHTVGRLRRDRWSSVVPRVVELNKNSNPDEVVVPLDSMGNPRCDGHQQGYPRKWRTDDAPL
Assay: Hypotonicity-induced Ca2+ influx (Fluo-4, FDSS)
Assay type: cell-based
Details: Flp-In T-REx 293 cells stably expressing human TRPV4, compounds listed by potency bin (<10 nM Tables 96-1/96-2, <3 nM Table 97)
pIC50: −log10 of the molar value.
Listing of entries alongside the reported pIC50.

Examples from the recorded data:
COCCOc1cccc(-c2cccc(C3(c4nc5c(c(=O)[nH]4)CN(C(=O)[C@H](O)c4cccc(Cl)c4)CCC5)CC3)c2)c1 [40-22] | > 8.52
O=C([C@H](O)c1cccc(-c2cc(Cl)cc(C(F)(F)F)c2)c1)N1CCc2nc(C3(c4ccccc4)CC3)[nH]c(=O)c2C1 [44-99] | > 8.00
O=C(Cc1cccc(-c2ccc(Cl)cc2)c1)N1CCCc2nc(C3(c4cccc(Cl)c4)CC3)[nH]c(=O)c2C1 [17-130] | > 8.00

Would you kindly look at the next entry?
Value lookup for pIC50; key = O=C(C(O)c1cccc(-c2cccc(C(F)(F)F)c2)c1)N1CCCc2nc(C3(c4cccc(F)c4)CC3)[nH]c(=O)c2C1 (stereo not shown) [17-14] > 8.00

* * *

Molecular target: human TRPV4 (Homo sapiens, UniProt Q9HBA0)
Construct: host or cells: tetracycline-inducible Flp-In T-REx 293 cells
Test: Hypotonicity-induced Ca2+ influx (Fluo-4, FDSS)
Format: cell-based
Conditions: Flp-In T-REx 293 cells stably expressing human TRPV4, compounds listed by potency bin (<10 nM Tables 96-1/96-2, <3 nM Table 97)
pIC50: −log10 of the molar value.
Listing of entries alongside the reported pIC50.

Examples from the recorded data:
CC(C)(C)CCc1csc(C2(c3nc4c(c(=O)[nH]3)CN(C(=O)[C@H](O)c3cccc(C(F)(F)F)c3)CCC4)CC2)c1 | > 8.00
CC(C)c1cccc(C2(c3nc4c(c(=O)[nH]3)CN(C(=O)[C@H](O)c3cccc(Cl)c3)CC4)CC2)c1 | > 8.00
O=C([C@H](O)c1cccc(C(F)(F)F)c1)N1CCCc2nc(C3(c4cccc(C5=CCN(C(=O)N6CCCCC6)CC5)c4)CC3)[nH]c(=O)c2C1 | > 8.00
O=C([C@H](O)c1cccc(C(F)(F)F)c1)N1CCCc2nc(C3(c4cccc(-c5ccc(CN6CCC(OCc7ccccc7)CC6)cc5)c4)CC3)[nH]c(=O)c2C1 | > 8.00
CC(C)(C)c1ccc(-c2cccc([C@@H](O)C(=O)N3CCCc4nc(C5(c6cccc(Cl)c6)CC5)[nH]c(=O)c4C3)c2)cc1 | > 8.00

Please provide the recorded pIC50 for "CC1(C)CCC(c2cccc(C3(c4nc5c(c(=O)[nH]4)CN(C(=O)[C@H](O)c4cccc(C(F)(F)F)c4)CCC5)CC3)c2)CC1" , tested on human TRPV4 (Homo sapiens, UniProt Q9HBA0). > 8.52

Please provide the recorded pIC50 for O=C(C(O)c1cccc(-c2cc(Cl)cc(Cl)c2)c1)N1CCc2nc(C3(c4ccccc4)CC3)[nH]c(=O)c2C1 (centres unmarked) , tested on human TRPV4 (Homo sapiens, UniProt Q9HBA0). > 8.00

Please provide the recorded pIC50 for "O=C([C@H](O)c1cccc(C(F)(F)F)c1)N1CCc2nc(C3(c4cc(Br)cs4)CC3)[nH]c(=O)c2C1" , tested on human TRPV4 (Homo sapiens, UniProt Q9HBA0). > 8.00

Please provide the recorded pIC50 for "CN(Cc1ccc(-c2cccc(C3(c4nc5c(c(=O)[nH]4)CN(C(=O)[C@H](O)c4cccc(C(F)(F)F)c4)CCC5)CC3)c2)cc1)C(=O)NC1CCCCC1" , tested on human TRPV4 (Homo sapiens, UniProt Q9HBA0). > 8.52

Please provide the recorded pIC50 for CC(C)c1cccc(C2(c3nc4c(c(=O)[nH]3)CN(C(=O)C(O)c3cccc(C(C)(C)C)c3)CCC4)CC2)c1 (centres unmarked) , tested on human TRPV4 (Homo sapiens, UniProt Q9HBA0). > 8.52

Please provide the recorded pIC50 for "Cn1ncc2cc(-c3cccc(C4(c5nc6c(c(=O)[nH]5)CN(C(=O)[C@H](O)c5cccc(Cl)c5)CCC6)CC4)c3)ccc21" , tested on human TRPV4 (Homo sapiens, UniProt Q9HBA0). > 8.52

Please provide the recorded pIC50 for "O=C([C@H](O)c1cccc(C(F)(F)F)c1)N1CCCc2nc(C3(c4cccc(C5=CCN(S(=O)(=O)Cc6ccccc6)CC5)c4)CC3)[nH]c(=O)c2C1" , tested on human TRPV4 (Homo sapiens, UniProt Q9HBA0). > 8.00

Please provide the recorded pIC50 for "O=C([C@H](O)c1cccc(C(F)(F)F)c1)N1CCCc2nc(C3(c4cc(C(=O)N(Cc5ccccc5)C5CCCCC5)cs4)CC3)[nH]c(=O)c2C1" , tested on human TRPV4 (Homo sapiens, UniProt Q9HBA0). > 8.00

Please provide the recorded pIC50 for "O=C([C@H](O)c1cccc(Cl)c1)N1CCCc2nc(C3(c4cccc(-c5ccc(C(F)(F)F)cc5)c4)CC3)[nH]c(=O)c2C1" , tested on human TRPV4 (Homo sapiens, UniProt Q9HBA0). > 8.00

* * *

Listing of entries alongside the reported pIC50.
Biological target: human TRPV4 (Homo sapiens, UniProt Q9HBA0)
Construct: host or cells: tetracycline-inducible Flp-In T-REx 293 cells
Experiment: Hypotonicity-induced Ca2+ influx (Fluo-4, FDSS)
Type: cell-based
Settings: Flp-In T-REx 293 cells stably expressing human TRPV4, compounds listed by potency bin (<10 nM Tables 96-1/96-2, <3 nM Table 97)
pIC50: −log10 of the molar value.

CC(C)c1csc(C2(c3nc4c(c(=O)[nH]3)CN(C(=O)Cc3cccc(-c5cccc(Cl)c5)c3)CCC4)CC2)c1 | > 8.00
O=C(C(O)c1cccc(OCc2ccccc2)c1)N1CCCc2nc(C3(c4cccc(Cl)c4)CC3)[nH]c(=O)c2C1 (stereo not drawn) | > 8.00
O=C(Cc1cccc(-c2cccc(C(F)(F)F)c2)c1)N1CCc2nc(C3(c4cccc(C5CCCCC5)c4)CC3)[nH]c(=O)c2C1 | > 8.00
CC(C)c1cccc(-c2cccc([C@@H](O)C(=O)N3CCc4nc(C5(c6ccccc6)CC5)[nH]c(=O)c4C3)c2)c1 | > 8.00
CC(C)c1csc(C2(c3nc4c(c(=O)[nH]3)CN(C(=O)C(F)(F)c3cccc(Cl)c3)CC4)CC2)c1 | > 8.00

Value lookup for pIC50; key = O=C(C(O)c1cccc(-c2cccc(OC(F)(F)F)c2)c1)N1CCc2nc(C3(c4cccs4)CC3)[nH]c(=O)c2C1 (stereo not drawn) > 8.52

Value lookup for pIC50; key = "O=C([C@H](O)c1cccc(C(F)(F)F)c1)N1CCCc2nc(C3(c4cccc(OC(F)(F)F)c4)CC3)[nH]c(=O)c2C1" > 8.52

Value lookup for pIC50; key = "CC(C)(C)c1ccc(-c2cccc(C3(c4nc5c(c(=O)[nH]4)CN(C(=O)[C@H](O)c4cccc(Cl)c4)CCC5)CC3)c2)cc1" > 8.00

Value lookup for pIC50; key = "O=C([C@H](O)c1cccc(-c2coc3ccccc23)c1)N1CCCc2nc(C3(c4cccc(Cl)c4)CC3)[nH]c(=O)c2C1" > 8.52

* * *

Listing of entries alongside the reported pIC50.
Biological target: human TRPV4 (Homo sapiens)
Construct: host or cells: tetracycline-inducible Flp-In T-REx 293 cells
Assay: Hypotonicity-induced Ca2+ influx (Fluo-4, FDSS)
Type: cell-based
Conditions: Flp-In T-REx 293 cells stably expressing human TRPV4, compounds listed by potency bin (<10 nM Tables 96-1/96-2, <3 nM Table 97)
Method: Hypotonicity-Induced Ca^2+ Influx TRPV4 channel activation/opening results in an influx of Ca^2+ (Liedtke, W. et al., 2000 (NPL 1)). The resulting changes in intracellular calcium are monitored using a Ca^2+ sensitive fluorescent dye Fluo-4 (Invitrogen). Dye loaded cells are treated with the test compounds for 5 minutes prior to the addition of a hypotonic solution and the inhibition of the hypotonicity-induced activation is recorded. […]
pIC50: −log10 of the molar value.

Examples from the recorded data:
CC(C)c1csc(C2(c3nc4c(c(=O)[nH]3)CN(C(=O)[C@H](O)c3cccc(-c5ccnc(C(F)(F)F)c5)c3)CCC4)CC2)c1 | > 8.52
O=C([C@H](O)c1cccc(C(F)(F)F)c1)N1CCCc2nc(C3(c4cccc(-c5cnco5)c4)CC3)[nH]c(=O)c2C1 | > 8.00

Would you kindly look at the next entry?
Value lookup for pIC50; key = "O=C([C@H](O)c1cccc(-c2ccc3c(c2)OC(F)(F)O3)c1)N1CCCc2nc(C3(c4ccccc4)CC3)[nH]c(=O)c2C1" > 8.52
